Reference for the values: ChEMBL document CHEMBL3044979

Provide the recorded MBC for the entries that follow.
- Test system: Micrococcus luteus
- PROTOCOL DETAILS: Antibacterial activity against Micrococcus luteus ATCC 10240 assessed as growth inhibition by broth microdilution method
- Format: functional
The response must be a number in µg/mL with no trailing unit.

Ask | Give the reported value of MBC for this record: `S=c1n(CN2CCCCC2)nc(-c2ccccc2)n1-c1ccc(Br)cc1`
Reply | 1000

Ask | Let me know recorded MBC for `S=c1n(CN2CCOCC2)nc(-c2cccc(Cl)c2)n1-c1ccc(Br)cc1` , thanks.
Reply | 500

Ask | Specify measured MBC for `CCN(CC)Cn1nc(-c2cccc(Cl)c2)n(-c2ccc(Br)cc2)c1=S` .
Reply | 500

Ask | Give the reported MBC for this compound. `S=c1n(CN2CCOCC2)nc(-c2ccccc2)n1-c1ccc(Br)cc1`
Reply | 1000

Ask | Give the reported value of MBC for this record: `S=c1n(CN2CCCC2)nc(-c2ccccc2)n1-c1ccc(Br)cc1`
Reply | 1000

Ask | Output MBC of `S=c1n(CN2CCCC2)nc(-c2ccc(Cl)cc2)n1-c1ccc(Br)cc1`
Reply | 250

Ask | Please supply the value of reported MBC for the item `S=c1n(CN2CCOCC2)nc(-c2ccccc2Cl)n1-c1ccc(Br)cc1`
Reply | 250

Ask | Please list MBC recorded for the compound `CCN(CC)Cn1nc(-c2ccccc2Cl)n(-c2ccc(Br)cc2)c1=S`
Reply | 250

Ask | Report measured MBC; entry is `S=c1n(CN2CCCC2)nc(-c2ccccc2Cl)n1-c1ccc(Br)cc1`
Reply | 1000

Ask | For the compound `CCN(CC)Cn1nc(-c2ccc(Cl)cc2)n(-c2ccc(Br)cc2)c1=S` , report MBC.
Reply | 62.5

---

- Tested on: Staphylococcus aureus
- PROTOCOL DETAILS: Antibacterial activity against Staphylococcus aureus ATCC 25923 assessed as growth inhibition by broth microdilution method
- Assay type: functional
OBSERVED PROPERTY: MIC (µg/mL)
Return type: number; implicit unit µg/mL.

Ask | Provide measured MIC on Staphylococcus aureus for `CCN(CC)Cn1nc(-c2ccccc2Cl)n(-c2ccc(Br)cc2)c1=S` please.
Reply | 62.5

Ask | Name the recorded MIC of `S=c1n(CN2CCCC2)nc(-c2ccccc2)n1-c1ccc(Br)cc1` , assay system Staphylococcus aureus.
Reply | 1000

Ask | # return MIC of `S=c1n(CN2CCCC2)nc(-c2cccc(Cl)c2)n1-c1ccc(Br)cc1` (system: Staphylococcus aureus)
Reply | 31.2

Ask | Quote Staphylococcus aureus MIC for entry `CCN(CC)Cn1nc(-c2ccccc2)n(-c2ccc(Br)cc2)c1=S` .
Reply | 1000

Ask | Report the value of MIC obtained on Staphylococcus aureus for `S=c1n(CN2CCCC2)nc(-c2ccc(Cl)cc2)n1-c1ccc(Br)cc1` .
Reply | 31.2

Ask | Given `CCN(CC)Cn1nc(-c2cccc(Cl)c2)n(-c2ccc(Br)cc2)c1=S` , report its MIC on Staphylococcus aureus.
Reply | 31.2

Ask | Report value: MIC, system: Staphylococcus aureus, molecule: `S=c1n(CN2CCCCC2)nc(-c2ccccc2)n1-c1ccc(Br)cc1`
Reply | 1000

---

- Test system: Staphylococcus aureus
- PROTOCOL DETAILS: Antibacterial activity against Staphylococcus aureus ATCC 25923 assessed as growth inhibition by broth microdilution method
- Type: functional
OBSERVED PROPERTY: MIC (µg/mL)
Could you give me the number in µg/mL? Just the number is fine.

Ask | Indicate its recorded MIC; the compound in question is `S=c1n(CN2CCOCC2)nc(-c2ccccc2)n1-c1ccc(Br)cc1`
Reply | 1000

Ask | Supply measured MIC of CO/N=C(\C(=O)N[C@@H]1C(=O)N2C(C(=O)O)=C(COC(N)=O)CS[C@H]12)c1ccco1 [CEFUROXIME] in your reply.
Reply | 0.49

Ask | Write down MIC measured for item `S=c1n(CN2CCOCC2)nc(-c2cccc(Cl)c2)n1-c1ccc(Br)cc1`
Reply | 31.2

Ask | State, in one line, measured MIC of `S=c1n(CN2CCCC2)nc(-c2ccccc2Cl)n1-c1ccc(Br)cc1`
Reply | 31.2

Ask | Given `S=c1n(CN2CCOCC2)nc(-c2ccccc2Cl)n1-c1ccc(Br)cc1` , respond with its MIC.
Reply | 125

Ask | Annotate the compound `CCN(CC)Cn1nc(-c2ccc(Cl)cc2)n(-c2ccc(Br)cc2)c1=S` with its measured MIC.
Reply | 31.2

Ask | Please give the documented MIC of `S=c1n(CN2CCOCC2)nc(-c2ccc(Cl)cc2)n1-c1ccc(Br)cc1`
Reply | 62.5

Ask | Note MIC for the compound shown: `S=c1n(CN2CCCCC2)nc(-c2cccc(Cl)c2)n1-c1ccc(Br)cc1`
Reply | 31.2

Ask | Return MIC for the following compound: `S=c1n(CN2CCCCC2)nc(-c2ccccc2Cl)n1-c1ccc(Br)cc1`
Reply | 500

Ask | Look up and report measured MIC for this entry: `S=c1n(CN2CCCCC2)nc(-c2ccc(Cl)cc2)n1-c1ccc(Br)cc1`
Reply | 1000

---

- Test system: Bacillus cereus
- PROTOCOL DETAILS: Antibacterial activity against Bacillus cereus ATCC 10876 assessed as growth inhibition by broth microdilution method
- Format: functional
OBSERVED PROPERTY: MBC

Ask | Entry `S=c1n(CN2CCCCC2)nc(-c2ccc(Cl)cc2)n1-c1ccc(Br)cc1` needs its MBC filled in; supply it.
Reply | > 1000 µg/mL

Ask | Please give measured MBC of the following entry: `CCN(CC)Cn1nc(-c2ccccc2Cl)n(-c2ccc(Br)cc2)c1=S`
Reply | > 1000 µg/mL

Ask | Write down MBC measured for item `S=c1n(CN2CCOCC2)nc(-c2cccc(Cl)c2)n1-c1ccc(Br)cc1`
Reply | > 1000 µg/mL

Ask | # return recorded MBC for input `S=c1n(CN2CCCCC2)nc(-c2ccccc2)n1-c1ccc(Br)cc1`
Reply | > 1000 µg/mL

Ask | Identify the reported MBC for the following entry. `CCN(CC)Cn1nc(-c2ccccc2)n(-c2ccc(Br)cc2)c1=S`
Reply | > 1000 µg/mL

Ask | Give the reported value of MBC for this record: `S=c1n(CN2CCCCC2)nc(-c2cccc(Cl)c2)n1-c1ccc(Br)cc1`
Reply | 1000 µg/mL
